- study target: Ba/F3 cells EGFR Del 19/T790M (Homo sapiens, UniProt P00533, DEL746-750/T790M, cells depend on it)
- Sequence (P00533 with tags, fused parts or gaps DEL746-750/T790M): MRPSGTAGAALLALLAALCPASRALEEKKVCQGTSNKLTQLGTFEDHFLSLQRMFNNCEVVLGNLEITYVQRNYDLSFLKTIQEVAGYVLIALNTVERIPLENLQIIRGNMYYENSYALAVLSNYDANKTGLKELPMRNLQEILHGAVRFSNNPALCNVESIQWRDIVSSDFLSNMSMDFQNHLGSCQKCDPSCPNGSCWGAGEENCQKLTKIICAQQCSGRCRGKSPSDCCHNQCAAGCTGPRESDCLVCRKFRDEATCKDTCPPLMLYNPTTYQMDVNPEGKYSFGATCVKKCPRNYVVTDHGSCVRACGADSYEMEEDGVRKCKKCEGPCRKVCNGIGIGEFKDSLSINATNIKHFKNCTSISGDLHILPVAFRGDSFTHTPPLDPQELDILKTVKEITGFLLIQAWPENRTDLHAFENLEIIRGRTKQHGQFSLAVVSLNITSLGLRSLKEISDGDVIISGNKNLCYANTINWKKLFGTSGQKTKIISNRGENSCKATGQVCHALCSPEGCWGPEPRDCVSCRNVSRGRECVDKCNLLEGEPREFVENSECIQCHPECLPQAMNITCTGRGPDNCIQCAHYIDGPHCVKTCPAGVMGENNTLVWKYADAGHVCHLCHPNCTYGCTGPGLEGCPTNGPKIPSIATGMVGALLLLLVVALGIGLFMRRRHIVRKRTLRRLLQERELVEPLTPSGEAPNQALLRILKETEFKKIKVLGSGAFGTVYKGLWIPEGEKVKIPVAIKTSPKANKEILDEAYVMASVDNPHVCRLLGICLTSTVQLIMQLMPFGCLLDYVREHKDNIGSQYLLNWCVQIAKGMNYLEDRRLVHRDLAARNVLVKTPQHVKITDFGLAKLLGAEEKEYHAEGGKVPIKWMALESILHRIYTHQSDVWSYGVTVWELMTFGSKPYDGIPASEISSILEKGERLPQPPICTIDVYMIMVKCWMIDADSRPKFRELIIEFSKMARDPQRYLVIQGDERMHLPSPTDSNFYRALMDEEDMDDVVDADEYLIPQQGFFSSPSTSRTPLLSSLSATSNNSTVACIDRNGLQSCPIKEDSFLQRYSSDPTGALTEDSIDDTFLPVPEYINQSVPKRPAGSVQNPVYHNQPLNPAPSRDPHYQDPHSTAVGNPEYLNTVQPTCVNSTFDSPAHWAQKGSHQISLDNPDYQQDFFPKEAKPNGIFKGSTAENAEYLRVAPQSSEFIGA
- protocol description: Cell proliferation/growth MTS assay in EGFR mutant Ba/F3 cells
- Type: cell-based
- condition summary: 72 hours, read-out: IC50 (nM) in Ba/F3 Cells, EGFR Del 19/T790M
value kind: GI50 (nM)

Reference set (3 entries):
C=CC(=O)Nc1ccc(OC)c(Nc2ncc(Cl)c(Nc3ccccc3C(=O)NC)n2)c1    56
C=CC(=O)Nc1cccc(CNc2ncc(Cl)c(Nc3ccccc3S(=O)(=O)C(C)C)n2)c1    670
C=CC(=O)Nc1cccc(Nc2ncc(Cl)c(Nc3ccccc3S(=O)(=O)NC)n2)c1    11

(P) C=CC(=O)Nc1cccc(Nc2ncc(Cl)c(Nc3ccccc3C(=O)NC)n2)c1
(Q) C=CC(=O)Nc1cccc(Nc2ncc(Cl)c(Nc3ccccc3S(=O)(=O)C(C)C)n2)c1
Ask: // max by GI50 over [ P , Q ] Answer by stating the label of the chosen item.
Result: Q
(Q: 7 nM, P: 3 nM)

---

- study target: Ba/F3 cells EGFR L858R/T790M (Homo sapiens, UniProt P00533, T790M/L858R, cells depend on it)
- Sequence (P00533 whole entry T790M/L858R): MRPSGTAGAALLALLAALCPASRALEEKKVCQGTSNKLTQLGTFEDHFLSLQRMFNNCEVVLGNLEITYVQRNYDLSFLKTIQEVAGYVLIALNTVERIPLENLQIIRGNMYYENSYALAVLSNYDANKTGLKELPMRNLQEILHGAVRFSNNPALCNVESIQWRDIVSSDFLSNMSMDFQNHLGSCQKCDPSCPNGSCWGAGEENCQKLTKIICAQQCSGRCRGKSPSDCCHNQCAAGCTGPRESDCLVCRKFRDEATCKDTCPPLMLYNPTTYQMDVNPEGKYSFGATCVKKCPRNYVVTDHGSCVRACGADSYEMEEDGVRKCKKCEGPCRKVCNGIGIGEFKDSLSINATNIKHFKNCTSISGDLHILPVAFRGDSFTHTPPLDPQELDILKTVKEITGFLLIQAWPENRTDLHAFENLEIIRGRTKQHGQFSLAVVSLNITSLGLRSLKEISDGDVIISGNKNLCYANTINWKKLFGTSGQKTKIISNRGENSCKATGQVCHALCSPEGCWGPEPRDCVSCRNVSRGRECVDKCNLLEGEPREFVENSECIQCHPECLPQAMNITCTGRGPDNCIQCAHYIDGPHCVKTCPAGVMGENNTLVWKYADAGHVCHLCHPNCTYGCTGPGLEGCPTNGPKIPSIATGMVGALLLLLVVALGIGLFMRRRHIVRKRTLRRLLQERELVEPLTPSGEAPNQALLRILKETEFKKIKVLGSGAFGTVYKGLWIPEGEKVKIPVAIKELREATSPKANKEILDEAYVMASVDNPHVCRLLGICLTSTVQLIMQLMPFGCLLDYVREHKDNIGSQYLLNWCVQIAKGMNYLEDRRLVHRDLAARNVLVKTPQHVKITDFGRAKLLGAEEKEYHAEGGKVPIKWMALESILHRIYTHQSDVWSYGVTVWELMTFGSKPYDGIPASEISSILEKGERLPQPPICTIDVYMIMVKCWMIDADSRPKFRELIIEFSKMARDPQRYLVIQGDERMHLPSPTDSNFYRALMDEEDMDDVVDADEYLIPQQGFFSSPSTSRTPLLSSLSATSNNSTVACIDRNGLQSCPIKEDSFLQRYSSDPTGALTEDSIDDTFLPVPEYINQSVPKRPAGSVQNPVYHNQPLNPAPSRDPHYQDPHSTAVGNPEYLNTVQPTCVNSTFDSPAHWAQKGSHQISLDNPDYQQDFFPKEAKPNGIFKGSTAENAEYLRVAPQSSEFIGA
- protocol description: Cell proliferation/growth MTS assay in EGFR mutant Ba/F3 cells
- Type: cell-based
- condition summary: 72 hours, read-out: IC50 (nM) in Ba/F3 Cells, EGFR L858R/T790M
value kind: GI50 (nM)

Reference set (3 entries):
C=CC(=O)Nc1cccc(Nc2ncc(Cl)c(Nc3ccccc3C(=O)NC)n2)c1    6
C=CC(=O)Nc1cccc(Nc2ncc(Cl)c(Nc3ccccc3S(=O)(=O)C(C)C)n2)c1    17
C=CC(=O)Nc1ccc(OC)c(Nc2ncc(Cl)c(Nc3ccccc3C(=O)NC)n2)c1    65

(1) C=CC(=O)Nc1cccc(Nc2ncc(Cl)c(Nc3ccccc3S(=O)(=O)NC)n2)c1
(2) C=CC(=O)Nc1cccc(CNc2ncc(Cl)c(Nc3ccccc3S(=O)(=O)C(C)C)n2)c1
Ask: // max by GI50 over [ 1 , 2 ] Answer by stating the label of the chosen item.
Result: 2
(2: 721 nM, 1: 9 nM)
